# Tested on: femoral artery
# experiment_notes: Blood flow increase of femoral artery in anesthetized dogs, i.v.
# Format: in vivo, dog (mongrel)
# condition_summary: Canis lupus familiaris, iv; dog, 1.0 mg/kg
endpoint_label: change in vivo at 1 mg/kg (%)

• CCCCCCNC1CCCN(S(=O)(=O)c2cccc3cnccc23)C1 (stereo not shown) [Compound (71)] = 35
• NC1CCCN(S(=O)(=O)c2cccc3c(O)nccc23)C1 (stereo not shown) [Compound (84)] = 27
• NC1CCCN(S(=O)(=O)c2cccc3cnccc23)C1 (stereo not shown) [Compound (63)] = 38
• O=S(=O)(c1cccc2cnccc12)N1CCNCC1 [Comparative Compound No. 3, 1(5-Isoquinolinesulfonyl)piperazine, reference compound] = 69

----------
# Tested on: vertebral artery
# experiment_notes: Blood flow increase of vertebral artery in anesthetized dogs, i.v.
# Assay type: in vivo, dog (mongrel)
# condition_summary: Canis lupus familiaris, iv; dog, 1.0 mg/kg
Each entry below carries its recorded change in vivo at 1 mg/kg.
endpoint_label: change in vivo at 1 mg/kg (%)

• NC1CCCN(S(=O)(=O)c2cccc3cnccc23)C1 (stereo not shown) [Compound (63)] = 95
• O=S(=O)(c1cccc2cnccc12)N1CCNCC1 [Comparative Compound No. 3, 1(5-Isoquinolinesulfonyl)piperazine, reference compound] = 98
• CCCCCCNC1CCCN(S(=O)(=O)c2cccc3cnccc23)C1 (stereo not shown) [Compound (71)] = 85
• NC1CCCN(S(=O)(=O)c2cccc3c(O)nccc23)C1 (stereo not shown) [Compound (84)] = 51

----------
# Test system: vertebral artery
# experiment_notes: Blood flow increase of vertebral artery in anesthetized dogs, i.v.
# Type: in vivo, dog (mongrel)
# condition_summary: Canis lupus familiaris, iv; dog, i.v., 0.3 mg/kg; read-out: Increase in vertebral artery blood flow
endpoint_label: change in vivo at 0.3 mg/kg (%)

- CCCCCCN(CCN)S(=O)(=O)c1cccc2cnccc12: 170
- CCCCCCNCCN(CC)S(=O)(=O)c1cccc2cnccc12: 110
- NC1CCCN(S(=O)(=O)c2cccc3cnccc23)C1 (centres unmarked): 72
- O=S(=O)(c1cccc2cnccc12)N1CCCNCC1 [Comparative Compound No. 1, 1(5-Isoquinolinesulfonyl)homopiperazine, reference compound]: 160
- CCCCN(CCN)S(=O)(=O)c1cccc2cnccc12: 130

----------
Each entry below carries its recorded LD50.
# experiment_notes: Acute toxicity in mice
# condition_summary: mouse, in vivo, iv; male mice
endpoint_label: LD50

* NC1CCCN(S(=O)(=O)c2cccc3c(O)nccc23)C1 (centres unmarked) | 141 mg/kg
* NC1CCCN(S(=O)(=O)c2cccc3cnccc23)C1 (centres unmarked) | 176 mg/kg
* CCCCCCNCCN(CC)S(=O)(=O)c1cccc2cnccc12 | 145 mg/kg
* CCCCCCN(CCN)S(=O)(=O)c1cccc2cnccc12 | 95 mg/kg
* CCCCN(CCN)S(=O)(=O)c1cccc2cnccc12 | 105 mg/kg

----------
# Test system: coronary artery
# experiment_notes: Blood flow increase of coronary artery in anesthetized dogs, i.v.
# Type: in vivo, dog (mongrel)
# condition_summary: Canis lupus familiaris, iv; dog, 1.0 mg/kg
Each entry below carries its recorded change in vivo at 1 mg/kg.
endpoint_label: change in vivo at 1 mg/kg (%)

* CCCCCCNC1CCCN(S(=O)(=O)c2cccc3cnccc23)C1 (stereo not shown) | 102
* NC1CCCN(S(=O)(=O)c2cccc3c(O)nccc23)C1 (stereo not shown) | 74
* NC1CCCN(S(=O)(=O)c2cccc3cnccc23)C1 (stereo not shown) | 128
* O=S(=O)(c1cccc2cnccc12)N1CCNCC1 [Comparative Compound No. 3, 1(5-Isoquinolinesulfonyl)piperazine, reference compound] | 70
